Taken from the RNAGym collection of RNA variant scans (doi:10.7554/elife.90254).

B1: OR4K15 (parent)
chain: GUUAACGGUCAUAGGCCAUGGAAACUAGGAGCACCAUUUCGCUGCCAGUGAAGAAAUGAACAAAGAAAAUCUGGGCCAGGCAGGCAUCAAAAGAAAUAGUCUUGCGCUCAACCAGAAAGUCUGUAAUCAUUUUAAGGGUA

Variants of: B1
Assay: self-cleavage, relative activity (ratio to wild type); higher = more cleavage; in vitro, sequencing; the parent is a self-cleaving ribozyme
Returns one of MET or NOT MET; MET when self-cleavage is >= 0.09.

mutation_annotation | discrete_label
A5U A91G | MET

Task item: Entry U38C A126G : is its self-cleavage no less than 0.09?
Reply: MET

Task item: Entry A22G U38C : is its self-cleavage no less than 0.09?
Reply: MET

Task item: Entry A51U A62U : is its self-cleavage no less than 0.09?
Reply: MET

Task item: Entry A36U C107G : is its self-cleavage no less than 0.09?
Reply: NOT MET
